# Activity values compiled below
organism: Homo sapiens; test: Inhibition of transglutaminase in human keratinocytes assessed as mean transglutaminase activity level at 1.65 10^-9M in presence of 10 uM retinal relative to retinal alone; format: cell-based; design: scale not given: the % may be the effect or the level left
// note: answer is a bare numeric in %

Worked set:
CC1(C)[C@@H](OC(=O)CCC(=O)O)CC[C@]2(C)[C@H]3C(=O)C=C4[C@@H]5C[C@@](C)(C(=O)O)CC[C@]5(C)CC[C@@]4(C)[C@]3(C)CC[C@@H]12
77.8
CC1(C)[C@@H](O)CC[C@]2(C)[C@H]3C(=O)C=C4[C@@H]5C[C@@](C)(C(=O)O)CC[C@]5(C)CC[C@@]4(C)[C@]3(C)CC[C@@H]12
103

Task item: Given the compound COc1cc(NS(C)(=O)=O)ccc1Nc1c2ccccc2nc2ccccc12 , what is its reported Activity?
Reply: 113

Task item: Given the compound CCCCCCCC/C=C\CCCCCCCCCCCCCC(=O)N[C@@H](COP(=O)([O-])OCC[N+](C)(C)C)[C@H](O)/C=C/CCCCCCCCCCCCC , what is its reported Activity?
Reply: 68.4

* * *

species on record: Homo sapiens; assay: Inhibition of transglutaminase in human keratinocytes assessed as mean transglutaminase activity level at 1.23 10^-7M in presence of 10 uM retinal relative to retinal alone; format: cell-based; design: scale not given: the % may be the effect or the level left
Value Type: Activity (%)
// note: answer is a bare numeric in %

COc1cc(NS(C)(=O)=O)ccc1Nc1c2ccccc2nc2ccccc12
65

Task item: Given the compound CC1(C)[C@@H](OC(=O)CCC(=O)O)CC[C@]2(C)[C@H]3C(=O)C=C4[C@@H]5C[C@@](C)(C(=O)O)CC[C@]5(C)CC[C@@]4(C)[C@]3(C)CC[C@@H]12 , what is its reported Activity?
Reply: 81

Task item: Given the compound CC1(C)[C@@H](O)CC[C@]2(C)[C@H]3C(=O)C=C4[C@@H]5C[C@@](C)(C(=O)O)CC[C@]5(C)CC[C@@]4(C)[C@]3(C)CC[C@@H]12 , what is its reported Activity?
Reply: 112

Task item: Given the compound CCCCCCCC/C=C\CCCCCCCCCCCCCC(=O)N[C@@H](COP(=O)([O-])OCC[N+](C)(C)C)[C@H](O)/C=C/CCCCCCCCCCCCC , what is its reported Activity?
Reply: 70

* * *

molecular target: Diacylglycerol O-acyltransferase 1 (Bos taurus) (UniProt Q8MK44); assay: Inhibition of ARAT in bovine RPE microsomes at 10 uM using retinol substrate in presence of dilauroyl-phosphatidyl choline incubated for 5 mins by HPLC analysis relative to control
Sequence (Q8MK44 whole entry): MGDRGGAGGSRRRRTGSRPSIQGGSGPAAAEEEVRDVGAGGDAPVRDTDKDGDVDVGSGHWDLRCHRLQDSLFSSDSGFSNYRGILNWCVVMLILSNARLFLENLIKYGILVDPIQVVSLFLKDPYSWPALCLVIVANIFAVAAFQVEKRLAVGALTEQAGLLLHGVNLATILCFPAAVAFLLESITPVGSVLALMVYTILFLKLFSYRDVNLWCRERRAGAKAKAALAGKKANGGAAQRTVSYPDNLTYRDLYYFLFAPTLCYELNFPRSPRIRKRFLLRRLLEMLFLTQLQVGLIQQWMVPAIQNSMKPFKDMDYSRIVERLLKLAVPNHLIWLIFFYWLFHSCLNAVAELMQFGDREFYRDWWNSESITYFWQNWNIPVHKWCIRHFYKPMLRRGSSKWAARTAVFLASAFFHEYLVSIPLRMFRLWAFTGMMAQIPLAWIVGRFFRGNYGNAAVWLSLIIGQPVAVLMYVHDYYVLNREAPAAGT
Value Type: inhibition (%)
// note: answer is a bare numeric in %

Worked set:
CCCCC/C=C\C/C=C\CCCCCCCC(=O)N(CCO)CCO
12
CC(C)=CCC/C(C)=C/CC/C(C)=C/CC/C(C)=C/CO
38

Task item: Given the compound C/C=C\C(=O)C1C(C)=CCCC1(C)C (stereo not given) , what is its reported inhibition?
Reply: 67

Task item: Given the compound C/C=C/C(=O)C1=C(C)CCCC1(C)C , what is its reported inhibition?
Reply: 45

Task item: Given the compound CC(C)=CCCC(C)=CCCC(C)=CCO , what is its reported inhibition?
Reply: 23

The origin of these recorded values is ChEMBL document CHEMBL4420071.
